system: human muscarinic M2 receptor (Homo sapiens)
Sequence (P08172 whole entry): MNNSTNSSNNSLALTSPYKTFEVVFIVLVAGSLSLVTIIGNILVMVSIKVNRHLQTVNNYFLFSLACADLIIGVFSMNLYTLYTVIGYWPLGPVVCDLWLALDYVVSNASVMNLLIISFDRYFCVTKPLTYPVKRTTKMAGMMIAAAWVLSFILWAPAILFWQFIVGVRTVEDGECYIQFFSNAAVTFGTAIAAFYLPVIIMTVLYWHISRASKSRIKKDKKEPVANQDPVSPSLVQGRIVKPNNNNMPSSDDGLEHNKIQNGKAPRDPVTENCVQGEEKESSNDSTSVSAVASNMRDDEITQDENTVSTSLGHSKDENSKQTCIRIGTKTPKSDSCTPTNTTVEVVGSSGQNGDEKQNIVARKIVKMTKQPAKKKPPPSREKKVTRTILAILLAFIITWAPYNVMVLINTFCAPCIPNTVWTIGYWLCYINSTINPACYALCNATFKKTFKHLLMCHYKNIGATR
assay-info: Alphascreen Surefire phospho-ERK1/2 functional assay, M2
Format: cell-based
reported-conditions: CHO, read-out: % Emax cf. ACh (M2), CHO cells stably expressing human M2, relative to ACh
Experimental: ERK1/2 phosphorylation is a downstream consequence of both Gq/11 and Gi/o protein coupled receptor activation, making it highly suitable for the assessment of M1, M3 (Gq/11 coupled) and M2, M4 receptors (Gi/o coupled), rather than using different assay formats for different receptor subtypes. CHO cells stably expressing the human muscarinic M1, M2, M3 or M4 receptor were plated (25K/well) onto 96-well tissue culture plates in MEM-alpha+10% dialysed FBS. […]
endpoint-name: Emax (%)

* CCOC(=O)N1CCC2(CC(N3CCC(N(CC)CCC#N)CC3)C2)C1 (single isomer, unassigned) [2-55 Isomer 2] | 15

P = CCOC(=O)N1CCC2(CC(N3CCC(N(C(=O)CC)C4CC4)CC3)C2)C1 (single isomer, unassigned) [2-5 Isomer 2]
Q = CCOC(=O)N1CCC2(CC(N3CCC(N(CC(C)C)C(C)=O)CC3)C2)C1 (single isomer, unassigned) [2-19 Isomer 2]
input: Return label of the item with the larger Emax. Candidates: P , Q . State your choice using its label.
output: Q
(Q: 31%, P: 5%)

====

system: human muscarinic M4 receptor (Homo sapiens, UniProt P08173)
Construct: expressed in transfected cells
Sequence (P08173 whole entry): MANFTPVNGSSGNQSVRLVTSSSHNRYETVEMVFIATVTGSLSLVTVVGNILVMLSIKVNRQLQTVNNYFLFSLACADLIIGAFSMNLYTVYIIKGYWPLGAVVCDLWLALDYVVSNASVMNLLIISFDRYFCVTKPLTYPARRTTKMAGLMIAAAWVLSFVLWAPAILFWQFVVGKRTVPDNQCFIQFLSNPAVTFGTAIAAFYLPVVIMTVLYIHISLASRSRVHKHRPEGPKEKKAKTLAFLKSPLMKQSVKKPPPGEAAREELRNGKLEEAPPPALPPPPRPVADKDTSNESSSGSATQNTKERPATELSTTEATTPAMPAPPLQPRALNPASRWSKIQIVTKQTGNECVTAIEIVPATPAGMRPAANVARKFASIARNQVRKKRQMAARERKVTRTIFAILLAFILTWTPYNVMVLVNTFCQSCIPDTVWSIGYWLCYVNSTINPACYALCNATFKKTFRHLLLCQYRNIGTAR
assay-info: Alphascreen Surefire phospho-ERK1/2 functional assay, M4
Format: cell-based
reported-conditions: CHO cells stably expressing human M4; phospho-ERK1/2; read-out: pEC50 M4 (converted)
endpoint-name: EC50 (nM)

• CCOC(=O)N1CCC2(CC(N3CCC(N(C(C)=O)C4CC(F)(F)C4)CC3)C2)C1 (single isomer, unassigned) [2-28 Isomer 2] = 251
• CCOC(=O)N1CCC2(CC(N3CCC(N(CCO)C4CCC4)CC3)C2)C1 (single isomer, unassigned) [2-50 Isomer 2] = 251
• CCOC(=O)N1CCC2(CC(N3CCC(N(CC(F)(F)F)C4CC4)CC3)C2)C1 (single isomer, unassigned) [2-48 Isomer 2] = 39.8
• CCOC(=O)N1CCC2(CC(N3CCC(N(CCOC)C4CC4)CC3)C2)C1 (single isomer, unassigned) [2-8 Isomer 2] = 20
• CCN(C(C)=O)C1CCN(C2CCC3(C2)CN(C(=O)OC)C3)CC1 (single isomer, unassigned) [3-2 Isomer 2] = 31.6
• CCOC(=O)N1CCC2(CC(N3CCC(N(CC(C)(C)F)C(C)=O)CC3)C2)C1 (single isomer, unassigned) [2-26 Isomer 1] = 1000

1 = CCOC(=O)N1CCC2(CC(N3CCC(N(CC(F)F)C(C)=O)CC3)C2)C1 (single isomer, unassigned) [2-24 Isomer 2]
2 = CCOC(=O)N1CCC2(CC(N3CCC(N(C(=O)OC)C4COC4)CC3)C2)C1 (single isomer, unassigned) [2-47 Isomer 2]
3 = CCN(C(C)=O)C1CCN(C2CC3(CCN(C(=O)OC)C3)C2)CC1 (single isomer, unassigned) [2-17 Isomer 1]
input: Order these by EC50, descending, and give the full ranking. Your reply should list the labels following the order given in the request.
output: 3, 2, 1

A = CCCN(C(C)=O)C1CCN(C2CC3(CCN(C(=O)OCC)C3)C2)CC1 (single isomer, unassigned) [2-18 Isomer 2]
B = CCOC(=O)N1CCC2(CC(N3CCC(N(CC)Cc4cnco4)CC3)C2)C1 (single isomer, unassigned) [2-60 Isomer 2]
input: Compare A and B and name the one whose reported EC50 is smaller. Mark your answer with the label of the selected entry.
output: B

P = CCOC(=O)N1CCC2(CC(N3CCC(N(CC4(C)COC4)C(C)=O)CC3)C2)C1 (single isomer, unassigned) [2-23 Isomer 2]
Q = CCOC(=O)N1CCC2(CC(N3CCC(N(C(C)=O)C4CC4)CC3)C2)C1 (single isomer, unassigned) [2-3 Isomer 2]
R = [2H]C([2H])(C)OC(=O)N1CCC2(CC(N3CCC(N(CC)C(C)=O)CC3)C2)C1 (single isomer, unassigned) [2-38 Isomer 2]
input: Thanks in advance: please rank these 3 entries by EC50, highest to lowest. Write the labels in rank order as requested.
output: P, Q, R

====

system: human muscarinic M1 receptor (Homo sapiens, UniProt P11229)
assay-info: Alphascreen Surefire phospho-ERK1/2 functional assay, M1
Format: cell-based
reported-conditions: CHO cells stably expressing human M1; phospho-ERK1/2; read-out: pEC50 M1 (converted)
Protocol: ERK1/2 phosphorylation is a downstream consequence of both Gq/11 and Gi/o protein coupled receptor activation, making it highly suitable for the assessment of M1, M3 (Gq/11 coupled) and M2, M4 receptors (Gi/o coupled), rather than using different assay formats for different receptor subtypes. CHO cells stably expressing the human muscarinic M1, M2, M3 or M4 receptor were plated (25K/well) onto 96-well tissue culture plates in MEM-alpha+10% dialysed FBS. […]
endpoint-name: EC50 (nM)

Answered cases to consult:
* CCOC(=O)N1CCC2(CC(N3CCC(N(C=O)CC)CC3)C2)C1 (single isomer, unassigned) [2-16 Isomer 2] | 398
* COC(=O)N1CCC2(CC(N3CCC(N(C(C)=O)C4CCC4)CC3)C2)C1 (single isomer, unassigned) [2-15 Isomer 2] | 501

A = CCOC(=O)N1CCC2(CC(N3CCC(N(CCOC)CC(F)(F)F)CC3)C2)C1 (single isomer, unassigned) [2-52 Isomer 2]
B = CCOC(=O)N1CCC2(CC(N3CCC(N(CC(F)(F)F)C(=O)OC)CC3)C2)C1 (single isomer, unassigned) [2-42 Isomer 2]
C = CCOC(=O)N1CCC2(CC(N3CCC(N(CC(C)(F)F)C(C)=O)CC3)C2)C1 (single isomer, unassigned) [2-27 Isomer 2]
input: Please produce an ascending ranking of these compounds based on EC50. Quick reminder: the answer is the labels in the order asked.
output: A, C, B

====

system: human muscarinic M3 receptor (Homo sapiens, UniProt P20309)
Construct: expressed in transfected cells
Sequence (P20309 whole entry): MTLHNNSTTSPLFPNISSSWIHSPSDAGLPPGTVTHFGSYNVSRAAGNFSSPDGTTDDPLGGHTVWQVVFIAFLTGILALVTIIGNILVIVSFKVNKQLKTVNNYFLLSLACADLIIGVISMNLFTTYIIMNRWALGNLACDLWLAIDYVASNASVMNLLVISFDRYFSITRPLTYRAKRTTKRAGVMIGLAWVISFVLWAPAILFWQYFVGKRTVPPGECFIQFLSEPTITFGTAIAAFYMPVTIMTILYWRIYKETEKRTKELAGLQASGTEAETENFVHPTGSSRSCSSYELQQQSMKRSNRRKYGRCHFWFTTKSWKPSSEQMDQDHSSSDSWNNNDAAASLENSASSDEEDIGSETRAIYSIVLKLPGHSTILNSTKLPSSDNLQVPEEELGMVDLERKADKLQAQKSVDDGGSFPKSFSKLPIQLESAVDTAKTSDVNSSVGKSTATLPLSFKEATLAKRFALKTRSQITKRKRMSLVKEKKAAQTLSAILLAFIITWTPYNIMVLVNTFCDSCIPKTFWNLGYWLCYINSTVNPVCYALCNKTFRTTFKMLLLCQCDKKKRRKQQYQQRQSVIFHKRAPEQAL
assay-info: Alphascreen Surefire phospho-ERK1/2 functional assay, M3
Format: cell-based
reported-conditions: CHO, read-out: % Emax cf. ACh (M3), CHO cells stably expressing human M3; phospho-ERK1/2; relative to ACh
endpoint-name: Emax (%)

Answered cases to consult:
- CCOC(=O)N1CCC2(CC(N3CCC(N(CC(F)(F)F)C(=O)OC)CC3)C2)C1 (single isomer, unassigned) [2-42 Isomer 2]: 39
- CCOC(=O)N1CCC2(CC(N3CCC(C(C)N(C(=O)CC)C4CC4)CC3)C2)C1 (single isomer, unassigned) [2-14 Isomer 2]: 5
- CCOC(=O)N1CCC2(CC(N3CCC(N(CC(C)(C)OC)C(C)=O)CC3)C2)C1 (single isomer, unassigned) [2-29 Isomer 2]: 73

A = CCOC(=O)N1CCC2(CC(N3CCC(N(CC4CC4)C(C)=O)CC3)C2)C1 (single isomer, unassigned) [2-20 Isomer 2]
B = CCOC(=O)N1CCC2(CC(N3CCC(C(C)n4cccn4)CC3)C2)C1 (single isomer, unassigned) [2-65 Isomer 2a]
C = CCOC(=O)N1CCC2(CC(N3CCC(SCc4ccccc4)CC3)C2)C1 (single isomer, unassigned) [2-67 Isomer 2]
input: hey, can you rank those molecules up there by Emax? biggest number first please Give the labels in the order requested.
output: A, B, C
(A: 33%, B: 15%, C: 2%)

====

system: human muscarinic M2 receptor (Homo sapiens)
assay-info: Alphascreen Surefire phospho-ERK1/2 functional assay, M2
Type: cell-based
reported-conditions: CHO, read-out: % Emax cf. ACh (M2), CHO cells stably expressing human M2, relative to ACh
endpoint-name: Emax (%)

* CCOC(=O)N1CCC2(CC(N3CCC(N(CC)C(=O)OCC)CC3)C2)C1 (single isomer, unassigned) [2-40 Isomer 2] | 32
* CCOC(=O)N1CCC2(CC(N3CCC(N(C(C)=O)C4CC4)CC3)C2)C1 (single isomer, unassigned) [2-3 Isomer 2] | 13
* CCOC(=O)N1CCC2(CC(N3CCC(N(CC)Cc4cnco4)CC3)C2)C1 (single isomer, unassigned) [2-60 Isomer 2] | 20
* CCOC(=O)N1CCC2(CC(N3CCC(N(CC(F)(F)F)C4COC4)CC3)C2)C1 (single isomer, unassigned) [2-54 Isomer 2] | 28

P = CCOC(=O)N1CCC2(CC(N3CCC(N(CC(=O)OC)C4CC4)CC3)C2)C1 (single isomer, unassigned) [2-9 Isomer 2]
Q = CCOC(=O)N1CCC2(CC(N3CCC(N(CCO)CC(F)(F)F)CC3)C2)C1 (single isomer, unassigned) [2-51 Isomer 2]
input: Of P versus Q , which is the one with smaller reported Emax? // caller expects the label of the chosen entry
output: P
(P: 6%, Q: 18%)

====

system: human muscarinic M1 receptor (Homo sapiens)
Sequence (P11229 1-460): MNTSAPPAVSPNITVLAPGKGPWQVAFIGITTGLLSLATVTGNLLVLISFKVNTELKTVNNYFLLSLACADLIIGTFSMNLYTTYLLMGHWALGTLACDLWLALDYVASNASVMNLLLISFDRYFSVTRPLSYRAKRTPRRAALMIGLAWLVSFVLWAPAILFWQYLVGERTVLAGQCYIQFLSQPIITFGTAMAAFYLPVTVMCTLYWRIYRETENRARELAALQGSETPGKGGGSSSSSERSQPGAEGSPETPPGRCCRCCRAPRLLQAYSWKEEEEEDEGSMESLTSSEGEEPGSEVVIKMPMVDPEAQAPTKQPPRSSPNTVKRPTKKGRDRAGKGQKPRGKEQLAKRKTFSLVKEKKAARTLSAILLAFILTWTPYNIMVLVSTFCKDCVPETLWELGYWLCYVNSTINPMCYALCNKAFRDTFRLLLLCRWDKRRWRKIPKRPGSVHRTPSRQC
assay-info: Alphascreen Surefire phospho-ERK1/2 functional assay, M1
Format: cell-based
reported-conditions: CHO, read-out: % Emax cf. ACh (M1), CHO cells stably expressing human M1; phospho-ERK1/2; relative to ACh
endpoint-name: Emax (%)

Use the examples below as a reference point.
• CCOC(=O)N1CC2(CC(N3CCC(N(C(C)=O)C4CC4)CC3)C2)C1 [Example 1-1] = 72
• CCOC(=O)N1CCC2(CC(N3CCC(N(CC)C(=O)N(C)C)CC3)C2)C1 (single isomer, unassigned) [Example 2-44 Isomer 2] = 55

1 = CCOC(=O)N1CCC2(CC(N3CCC(N(CC)Cc4cnco4)CC3)C2)C1 (single isomer, unassigned) [2-60 Isomer 2]
2 = CCOC(=O)N1CCC2(CC(N3CCC(N(Cc4ncco4)C(C)=O)CC3)C2)C1 (single isomer, unassigned) [2-37 Isomer 2]
3 = CCOC(=O)N1CCC2(CC(N3CCC(N(CCOC)C4CC4)CC3)C2)C1 (single isomer, unassigned) [2-8 Isomer 2]
4 = CCOC(=O)N1CCC2(CC(N3CCC(N(CCO)C4CC4)CC3)C2)C1 (single isomer, unassigned) [2-49 Isomer 2]
input: Descending sort on Emax required. Your reply should list the labels following the order given in the request.
output: 1, 2, 4, 3

a = CCOC(=O)N1CC2(CC(N3CCC(N(CC)C(C)=O)CC3)C2)C1 [Example 1-2]
b = CCOC(=O)N1CCC2(CC(N3CCC(N(CC(F)(F)F)C(=O)OC)CC3)C2)C1 (single isomer, unassigned) [2-42 Isomer 2]
input: Larger number for Emax: a , or b ? Pick one and reply with its label.
output: b
(b: 120%, a: 59%)

A = CCOC(=O)N1CCC2(CC(N3CCC(N(CC4(C)COC4)C(C)=O)CC3)C2)C1 (single isomer, unassigned) [2-23 Isomer 2]
B = CCOC(=O)N1CCC2(CC(N3CCC(N(C(=O)OC)C4COC4)CC3)C2)C1 (single isomer, unassigned) [2-47 Isomer 2]
input: # argmax over Emax for candidates A and B Write down the label of the entry you select.
output: B

A = CCOC(=O)N1CCC2(CC(N3CCC(N(CC(F)(F)F)C(=O)OCCOC)CC3)C2)C1 (single isomer, unassigned) [2-43 Isomer 2]
B = CCOC(=O)N1CCC2(CC(N3CCC(N(C(C)=O)C4CCC4)CC3)C2)C1 (single isomer, unassigned) [2-6 Isomer 2]
input: Please choose the item with the lower Emax value from this pair: A and B Output the label that corresponds to your choice.
output: A
(A: 35%, B: 101%)
